tested on: KMOE-2 (Acute Myeloid Leukemia); assay: Bliss excess, mean over the matrix (fraction); higher = more synergy;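 note: after 72 h of two-drug dosing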
REPORTED ENDPOINT: Bliss excess

COMPOUND: COc1cccc(OCCCN)c1-c1cc(Nc2cnc(C#N)cn2)n[nH]1 [Prexasertib] + CCc1c2c(nc3ccc(O)cc13)-c1cc3c(c(=O)n1C2)COC(=O)[C@]3(O)CC [SN-38] (first compound max 1 µM, 7x7, partner max 0.3 µM)
REPORTED ENDPOINT: Bliss excess
MEASURED VALUE: 0.0296

====

The following molecules are shown together with reported combination Emax values.
tested on: D-263MG (Glioblastoma); experiment: combination Emax (second highest fraction inhibited in the dose matrix, 72 h); higher = more inhibition; extreme values may be limits of the assay

MOLECULE: CCN(CCO)CCCOc1ccc2c(Nc3cc(CC(=O)Nc4cccc(F)c4)[nH]n3)ncnc2c1 [AZD2811] + C=CCn1c(=O)c2cnc(Nc3ccc(N4CCN(C)CC4)cc3)nc2n1-c1cccc(C(C)(C)O)n1 [AZD1775] (first compound max 1 µM, partner max 1 µM)
combination Emax: 0.51

MOLECULE: Cn1cnc2c(F)c(Nc3ccc(Br)cc3Cl)c(C(=O)NOCCO)cc21 [Selumetinib] + C=CCn1c(=O)c2cnc(Nc3ccc(N4CCN(C)CC4)cc3)nc2n1-c1cccc(C(C)(C)O)n1 [AZD1775] (first compound max 10 µM, partner max 1 µM)
combination Emax: 0.218

MOLECULE: Cc1c2c(nn1C)CSCc1cc(n(C)n1)CSc1cc(c3ccccc3c1)OCCCc1c(C(=O)O)n(C)c3c-2c(Cl)ccc13 [AZD5991] + Cn1cnc2c(F)c(Nc3ccc(Br)cc3Cl)c(C(=O)NOCCO)cc21 [Selumetinib] (first compound max 1 µM, 7x7, partner max 3 µM)
combination Emax: 0.634

MOLECULE: COc1cccc2c1C(=O)c1c(O)c3c(c(O)c1C2=O)C[C@@](O)(C(=O)CO)C[C@@H]3O[C@H]1C[C@H](N)[C@H](O)[C@H](C)O1 [Doxorubicin] + Cc1cc2ncnn2cc1Nc1ncc2c(n1)n(C1CCOCC1)c(=O)n2C [AZD7648] (first compound max 1 µM, 7x7, partner max 10 µM)
combination Emax: 0.789

MOLECULE: COc1nnc2ccc(N3CCC(c4ccc(OCCN5CCN(C)C(=O)[C@H]5C)cc4)CC3)nn12 [AZD5153] + C[C@@H]1COCCN1C2=NC(=NC(=C2)C3(CC3)[S@](=N)(=O)C)C4=C5C=CNC5=NC=C4 [AZD6738] (first compound max 1 µM, 7x7, partner max 10 µM)
combination Emax: 0.465

MOLECULE: CC1(C)CCC(CN2CCN(c3ccc(C(=O)NS(=O)(=O)c4ccc(NCC5CCOCC5)c([N+](=O)[O-])c4)c(Oc4cnc5[nH]ccc5c4)c3)CC2)=C(c2ccc(Cl)cc2)C1 [Venetoclax] + CS(=O)(=O)CCNCc1ccc(-c2ccc3ncnc(Nc4ccc(OCc5cccc(F)c5)c(Cl)c4)c3c2)o1 [Lapatinib] (first compound max 1 µM, 7x7, partner max 10 µM)
combination Emax: 0.108

MOLECULE: C[C@@H]1COCCN1c1cc(C2([S@](C)(=N)=O)CC2)nc(-c2ccnc3[nH]ccc23)n1 [AZD6738] + Nc1ccn([C@@H]2O[C@H](CO)[C@@H](O)C2(F)F)c(=O)n1 [Gemcitabine] (first compound max 10 µM, 7x7, partner max 0.3 µM)
combination Emax: 0.738

MOLECULE: CC1(C)CCC(CN2CCN(c3ccc(C(=O)NS(=O)(=O)c4ccc(NCC5CCOCC5)c([N+](=O)[O-])c4)c(Oc4cnc5[nH]ccc5c4)c3)CC2)=C(c2ccc(Cl)cc2)C1 [Venetoclax] + CCN(CCO)CCCOc1ccc2c(Nc3cc(CC(=O)Nc4cccc(F)c4)[nH]n3)ncnc2c1 [AZD2811] (first compound max 1 µM, 7x7, partner max 1 µM)
combination Emax: 0.323

MOLECULE: Cc1c2c(nn1C)CSCc1cc(n(C)n1)CSc1cc(c3ccccc3c1)OCCCc1c(C(=O)O)n(C)c3c-2c(Cl)ccc13 [AZD5991] + CS(=O)(=O)CCNCc1ccc(-c2ccc3ncnc(Nc4ccc(OCc5cccc(F)c5)c(Cl)c4)c3c2)o1 [Lapatinib] (first compound max 1 µM, 7x7, partner max 10 µM)
combination Emax: 0.458

MOLECULE: COc1cccc(OCCCN)c1-c1cc(Nc2cnc(C#N)cn2)n[nH]1 [Prexasertib] + CN(C)CCCOc1ccc(-c2ccc3ncc4c(c3c2)n(C2CCOCC2)c(=O)n4C)cn1 [AZD0156] (first compound max 1 µM, 7x7, partner max 1 µM)
combination Emax: 0.915

MOLECULE: CN(CCO)CC[C@H](CSc1ccccc1)Nc1ccc(S(=O)(=O)NC(=O)c2ccc(N3CCC([C@@H](O)c4ccccc4-c4ccc(Cl)cc4)CC3)cc2)cc1S(=O)(=O)C(F)(F)F [AZD4320] + CCN(CCO)CCCOc1ccc2c(Nc3cc(CC(=O)Nc4cccc(F)c4)[nH]n3)ncnc2c1 [AZD2811] (first compound max 1 µM, 7x7, partner max 1 µM)
combination Emax: 0.653

MOLECULE: CN(CCO)CC[C@H](CSc1ccccc1)Nc1ccc(S(=O)(=O)NC(=O)c2ccc(N3CCC([C@@H](O)c4ccccc4-c4ccc(Cl)cc4)CC3)cc2)cc1S(=O)(=O)C(F)(F)F [AZD4320] + Cc1cc2ncnn2cc1Nc1ncc2c(n1)n(C1CCOCC1)c(=O)n2C [AZD7648] (first compound max 1 µM, 7x7, partner max 10 µM)
combination Emax: 0.108

MOLECULE: C=CCn1c(=O)c2cnc(Nc3ccc(N4CCN(C)CC4)cc3)nc2n1-c1cccc(C(C)(C)O)n1 [AZD1775] + Nc1ccn([C@@H]2O[C@H](CO)[C@@H](O)C2(F)F)c(=O)n1 [Gemcitabine] (first compound max 1 µM, partner max 0.3 µM)
combination Emax: 0.622
